# pKd per record follows
study target: feline FcRn complex (FcRn-α subunit and β-microglobulin) (feline)
experimental protocol: SPR (Biacore), FcRn on SA chip, pH 7.4
A value of pKd is the negative decimal logarithm of a concentration given in moles per litre.

INSERT INTO assay_data (binder, endpoint_value) VALUES
  ('feline IgG1a mutant ID No. 338: S252Y, S428M, S434F, D399T (antibody, part only; not given: variable domains and light chain, not shown: another chain or arm of the molecule) constant: ASTTAPSVFPLAPSCGTTSGATVALACLVLGYFPEPVTVSWNSGALTSGVHTFPAVLQASGLYSLSSMVTVPSSRWLSDTFTCNVAHPPSNTKVDKTVRKTDHPPGPKPCDCPKCPPPEMLGGPSIFIFPPKPKDTLYISRTPEVTCLVVDLGPDDSDVQITWFVDNTQVYTAKTSPREEQFNSTYRVVSVLPILHQDWLKGKEFKCKVNSKSLPSPIERTISKAKGQPHEPQVYVLPPAQEELSRNKVSVTCLIKSFHPPDIAVEWEITGQPEPENNYRTTPPQLTSDGTYFVYSKLSVDRSHWQRGNTYTCSVMHEALHFHHTQKSLTQSPGK', 7.86),
  ('feline IgG1a mutant ID No. 274: S252R, S434H, Q311W (antibody, part only; not given: Variable domains, not shown: another chain or arm of the molecule) constant: ASTTAPSVFPLAPSCGTTSGATVALACLVLGYFPEPVTVSWNSGALTSGVHTFPAVLQASGLYSLSSMVTVPSSRWLSDTFTCNVAHPPSNTKVDKTVRKTDHPPGPKPCDCPKCPPPEMLGGPSIFIFPPKPKDTLRISRTPEVTCLVVDLGPDDSDVQITWFVDNTQVYTAKTSPREEQFNSTYRVVSVLPILHWDWLKGKEFKCKVNSKSLPSPIERTISKAKGQPHEPQVYVLPPAQEELSRNKVSVTCLIKSFHPPDIAVEWEITGQPEPENNYRTTPPQLDSDGTYFVYSKLSVDRSHWQRGNTYTCSVSHEALHHHHTQKSLTQSPGK', 5.41);

Here is another binder to look at.
Fill in: pKd of feline IgG1a mutant ID No. 310: P247V, T250Q, S252H (antibody, part only; not given: variable domains and light chain, not shown: another chain or arm of the molecule; small tags and cut ends) constant: ASTTAPSVFPLAPSCGTTSGATVALACLVLGYFPEPVTVSWNSGALTSGVHTFPAVLQASGLYSLSSMVTVPSSRWLSDTFTCNVAHPPSNTKVDKTVRKTDHPPGPKPCDCPKCPPPEMLGGPSIFIFPPKVKDQLHISRTPEVTCLVVDLGPDDSDVQITWFVDNTQVYTAKTSPREEQFNSTYRVVSVLPILHQDWLKGKEFKCKVNSKSLPSPIERTISKAKGQPHEPQVYVLPPAQEELSRNKVSVTCLIKSFHPPDIAVEWEITGQPEPENNYRTTPPQLDSDGTYFVYSKLSVDRSHWQRGNTYTCSVSHEALHSHHTQKSLTQSPGK is ___
7.61
